Molecular target: serotonin receptor (5HT3) (Mus musculus, UniProt P23979)
Construct: Full-length cDNAs for mosquito (Anopheles gambiae) odorant receptor; expressed in transfected cells
Sequence (P23979 24-489): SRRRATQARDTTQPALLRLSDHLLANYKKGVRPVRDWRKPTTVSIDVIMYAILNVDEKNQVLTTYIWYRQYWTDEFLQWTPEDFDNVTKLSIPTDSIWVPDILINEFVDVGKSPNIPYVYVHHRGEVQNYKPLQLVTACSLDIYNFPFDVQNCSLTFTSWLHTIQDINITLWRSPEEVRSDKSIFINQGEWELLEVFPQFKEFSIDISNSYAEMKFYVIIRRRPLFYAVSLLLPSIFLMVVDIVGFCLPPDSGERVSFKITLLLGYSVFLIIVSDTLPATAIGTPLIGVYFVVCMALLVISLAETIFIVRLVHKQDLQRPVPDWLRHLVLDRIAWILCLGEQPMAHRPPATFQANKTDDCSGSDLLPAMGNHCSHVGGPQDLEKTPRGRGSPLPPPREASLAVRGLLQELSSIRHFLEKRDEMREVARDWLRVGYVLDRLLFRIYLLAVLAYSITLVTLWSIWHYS
Assay: Ca2+-imaging of stable Flip-In T-Rex cell line 5HT3
Format: cell-based
Details: Table B; read-out: IC50 5HT3
pIC50: −log10 of the molar value.
Could you please report measured pIC50 for the items listed next?

Example entries begin here.
C=CCN(Cc1nccn1Cc1ccccc1F)C(=O)C1CCCC1 | < 6.00
COc1ccccc1N1CCN(C(=O)c2cc3n(n2)CCN(Cc2c(F)cccc2Cl)C3=O)CC1 | < 6.00
CN(Cc1ccccc1)C(=O)CCC1CCN(C(=O)CCOc2ccccc2)CC1 | < 6.00
O=C(c1ccco1)N(Cc1nccn1Cc1ccccc1Cl)CC1CC1 | 6.00 to 7.00
CCNc1nc(NC(C)C)nc(N(C#N)Cc2ccccc2)n1 | < 6.00

For each of the compounds below, state pIC50.
1. CCN(CC)c1onc(-c2ccccc2)c1CN(CC1CCCO1)C(=O)c1ccc2c(c1)OCO2 (stereo not shown)
2. COCCCN(CC(=O)N1CCc2sccc2C1c1ccc(OC)cc1)C(=O)C(C)(C)CCl (stereo not shown)
3. C=CCN(Cc1nccn1Cc1ccccc1F)C(=O)c1cccc(F)c1
4. COc1ccc(-c2cc(-c3ccccc3)n(C(=O)CN3CCN(Cc4ccccc4)CC3)n2)cc1
5. CCN(C)c1onc(-c2ccccc2)c1CN(CCCOC)C(=O)c1ccco1

Result:
1. < 6.00
2. < 6.00
3. < 6.00
4. < 6.00
5. 6.00 to 7.00

Where do the numbers come from? From patent US20130324522A1.
